# credit: ChEMBL document CHEMBL3763128

# Tested on: Streptococcus pneumoniae
# test_summary: Antibacterial activity against constitutive macrolide-lincosamide-streptogramin B resistant Streptococcus pneumoniae by agar microdilution method
# Type: functional
The label Condition met is reserved for MIC strictly under 4 µg/mL; Condition not met covers values equal to or above it.

Worked set:
CCC1OC(=O)[C@H](C)[C@@H](O[C@H]2C[C@@](C)(OC)[C@@H](OC(=O)CNC(=O)CCNCCOCCNc3cc4c(cc3F)c(=O)c(C(=O)O)cn4C3CC3)[C@H](C)O2)C(C)[C@@H](O[C@@H]2O[C@H](C)C[C@H](N(C)C)[C@H]2O)[C@](C)(O)C[C@@H](C)CN(C)[C@H](C)[C@@H](O)[C@]1(C)O (single isomer, unassigned)
Condition not met
O=C(O)c1cn(C2CC2)c2cc(N3CCNCC3)c(F)cc2c1=O [CIPROFLOXACIN]
Condition met
CCC1OC(=O)[C@H](C)[C@@H](O[C@H]2C[C@@](C)(OC)[C@@H](OC(=O)CNC(=O)CNC(=O)CSc3cnc4ccccc4n3)[C@H](C)O2)C(C)[C@@H](O[C@@H]2O[C@H](C)C[C@H](N(C)C)[C@H]2O)[C@](C)(O)C[C@@H](C)CN(C)[C@H](C)[C@@H](O)[C@]1(C)O (single isomer, unassigned)
Condition not met
CCC1OC(=O)[C@H](C)[C@@H](O[C@H]2C[C@@](C)(OC)[C@@H](OC(=O)CNC(=O)CSc3cnc4ccccc4n3)[C@H](C)O2)C(C)[C@@H](O[C@@H]2O[C@H](C)C[C@H](N(C)C)[C@H]2O)[C@](C)(O)C[C@@H](C)CN(C)[C@H](C)[C@@H](O)[C@]1(C)O (single isomer, unassigned)
Condition not met
CCC1OC(=O)[C@H](C)[C@@H](O[C@H]2C[C@@](C)(OC)[C@@H](OC(=O)CNCCCNCCNc3cc4c(cc3F)c(=O)c(C(=O)O)cn4C3CC3)[C@H](C)O2)C(C)[C@@H](O[C@@H]2O[C@H](C)C[C@H](N(C)C)[C@H]2O)[C@](C)(O)C[C@@H](C)CN(C)[C@H](C)[C@@H](O)[C@]1(C)O (single isomer, unassigned)
Condition met

Query: Decide: MIC of CC[C@@H]1OC(=O)[C@H](C)[C@@H](O[C@@H]2C[C@](C)(OC)[C@H](O)[C@@H](C)O2)[C@@H](C)[C@@H](O[C@@H]2O[C@H](C)C[C@H](N(C)C)[C@H]2O)[C@](C)(O)C[C@@H](C)CN(C)[C@H](C)[C@@H](O)[C@]1(C)O strictly below 4 µg/mL?
Response: Condition not met

Query: Input CCC1OC(=O)[C@H](C)[C@@H](O[C@H]2C[C@@](C)(OC)[C@@H](OC(=O)CNC(=O)CCNCCOCCNc3cc4c(=O)c(C(=O)O)cn(C5CC5)c4cc3Cl)[C@H](C)O2)C(C)[C@@H](O[C@@H]2O[C@H](C)C[C@H](N(C)C)[C@H]2O)[C@](C)(O)C[C@@H](C)CN(C)[C@H](C)[C@@H](O)[C@]1(C)O (single isomer, unassigned) ; condition: MIC strictly below 4 µg/mL. Does it hold?
Response: Condition met

Query: # strict comparison: is reported MIC < 4 µg/mL? input = CCC1OC(=O)[C@H](C)[C@@H](O[C@H]2C[C@@](C)(OC)[C@@H](OC(=O)CNCCNC(=O)CSc3cnc4ccccc4n3)[C@H](C)O2)C(C)[C@@H](O[C@@H]2O[C@H](C)C[C@H](N(C)C)[C@H]2O)[C@](C)(O)C[C@@H](C)CN(C)[C@H](C)[C@@H](O)[C@]1(C)O (single isomer, unassigned)
Response: Condition not met
